Listing of entries alongside the reported GI50.
system: BaF3 cell lines stably transfected with kinase EGFR Del/T790M (Homo sapiens, UniProt P00533, T790M, cells depend on it, form not given)
Sequence (P00533 with tags, fused parts or gaps DEL746-750/T790M, form open): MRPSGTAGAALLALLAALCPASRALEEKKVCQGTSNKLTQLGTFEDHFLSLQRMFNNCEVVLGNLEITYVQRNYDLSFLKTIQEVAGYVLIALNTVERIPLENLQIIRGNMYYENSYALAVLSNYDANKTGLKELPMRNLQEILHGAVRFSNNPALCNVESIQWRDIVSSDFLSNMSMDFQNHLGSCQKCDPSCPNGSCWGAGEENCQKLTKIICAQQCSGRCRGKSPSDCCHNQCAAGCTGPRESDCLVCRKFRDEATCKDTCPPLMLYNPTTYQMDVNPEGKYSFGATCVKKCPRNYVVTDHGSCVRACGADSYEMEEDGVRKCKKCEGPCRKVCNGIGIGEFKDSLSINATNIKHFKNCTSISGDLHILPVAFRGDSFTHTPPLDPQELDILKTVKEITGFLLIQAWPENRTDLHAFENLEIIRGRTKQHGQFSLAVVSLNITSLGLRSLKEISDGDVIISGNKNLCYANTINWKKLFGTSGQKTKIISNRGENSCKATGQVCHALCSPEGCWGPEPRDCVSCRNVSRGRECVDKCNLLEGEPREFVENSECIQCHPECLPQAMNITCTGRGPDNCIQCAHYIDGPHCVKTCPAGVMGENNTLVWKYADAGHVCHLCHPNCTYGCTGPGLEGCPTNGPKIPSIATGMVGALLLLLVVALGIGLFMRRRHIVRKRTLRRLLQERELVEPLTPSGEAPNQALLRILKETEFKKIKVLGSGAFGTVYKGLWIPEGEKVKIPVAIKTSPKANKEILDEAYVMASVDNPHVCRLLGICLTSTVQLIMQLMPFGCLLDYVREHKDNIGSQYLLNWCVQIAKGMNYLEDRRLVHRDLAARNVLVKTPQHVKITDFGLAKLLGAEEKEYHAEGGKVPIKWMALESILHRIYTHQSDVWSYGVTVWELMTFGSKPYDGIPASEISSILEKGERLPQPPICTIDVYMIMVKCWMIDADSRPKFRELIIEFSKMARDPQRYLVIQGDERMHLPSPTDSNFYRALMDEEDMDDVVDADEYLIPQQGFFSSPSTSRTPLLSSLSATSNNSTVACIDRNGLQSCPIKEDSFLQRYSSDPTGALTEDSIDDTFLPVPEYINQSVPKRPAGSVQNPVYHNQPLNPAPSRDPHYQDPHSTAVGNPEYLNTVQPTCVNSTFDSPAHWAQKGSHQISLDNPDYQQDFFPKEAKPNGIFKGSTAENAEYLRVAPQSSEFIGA
assay procedure: Growth inhibition of BaF3 cell line stably transfected with kinase EGFR Del/T790M (MTS)
Format: cell-based
experimental parameters: 48 h, read-out: growth inhibitory activity IC50, Del/T790M

For orientation, consider the following solved cases.
{"columns": ["chem smiles", "GI50"],
 "data": [
  ["C=Cc1cnc(Nc2cc(CC)c(N3CCC(N4CCN(C)CC4)CC3)cc2OC(F)(F)F)nc1Nc1ccc2nccnc2c1NS(C)(=O)=O", "50 to 500 nM"],
  ["CCc1cc(Nc2ncc(C3=CCCC3)c(Nc3ccc4nccnc4c3N(C)S(C)(=O)=O)n2)c(OC)cc1N1CCC(N2CCN(C)CC2)CC1", "500 to 2500 nM"],
  ["C=Cc1cnc(Nc2cc3c(cc2OC(F)(F)F)CCN(C)C3)nc1Nc1ccc2nccnc2c1N(C)S(C)(=O)=O", "500 to 2500 nM"]
]}

Per the record, C=Cc1cnc(Nc2cc(CC)c(NCCN(C)C)cc2OC)nc1Nc1ccc2nccnc2c1N(C)S(C)(=O)=O has GI50 of 50 to 500 nM

Per the record, C=Cc1cnc(Nc2ccc(N3CCC(N4CCN(C)CC4)CC3)cc2OC)nc1Nc1ccc2nccnc2c1S(=O)(=O)NC has GI50 of 500 to 2500 nM

###

system: BaF3 cell lines stably transfected with kinase EGFR L858R (Homo sapiens, UniProt P00533, L858R, cells depend on it)
Sequence (P00533 whole entry L858R): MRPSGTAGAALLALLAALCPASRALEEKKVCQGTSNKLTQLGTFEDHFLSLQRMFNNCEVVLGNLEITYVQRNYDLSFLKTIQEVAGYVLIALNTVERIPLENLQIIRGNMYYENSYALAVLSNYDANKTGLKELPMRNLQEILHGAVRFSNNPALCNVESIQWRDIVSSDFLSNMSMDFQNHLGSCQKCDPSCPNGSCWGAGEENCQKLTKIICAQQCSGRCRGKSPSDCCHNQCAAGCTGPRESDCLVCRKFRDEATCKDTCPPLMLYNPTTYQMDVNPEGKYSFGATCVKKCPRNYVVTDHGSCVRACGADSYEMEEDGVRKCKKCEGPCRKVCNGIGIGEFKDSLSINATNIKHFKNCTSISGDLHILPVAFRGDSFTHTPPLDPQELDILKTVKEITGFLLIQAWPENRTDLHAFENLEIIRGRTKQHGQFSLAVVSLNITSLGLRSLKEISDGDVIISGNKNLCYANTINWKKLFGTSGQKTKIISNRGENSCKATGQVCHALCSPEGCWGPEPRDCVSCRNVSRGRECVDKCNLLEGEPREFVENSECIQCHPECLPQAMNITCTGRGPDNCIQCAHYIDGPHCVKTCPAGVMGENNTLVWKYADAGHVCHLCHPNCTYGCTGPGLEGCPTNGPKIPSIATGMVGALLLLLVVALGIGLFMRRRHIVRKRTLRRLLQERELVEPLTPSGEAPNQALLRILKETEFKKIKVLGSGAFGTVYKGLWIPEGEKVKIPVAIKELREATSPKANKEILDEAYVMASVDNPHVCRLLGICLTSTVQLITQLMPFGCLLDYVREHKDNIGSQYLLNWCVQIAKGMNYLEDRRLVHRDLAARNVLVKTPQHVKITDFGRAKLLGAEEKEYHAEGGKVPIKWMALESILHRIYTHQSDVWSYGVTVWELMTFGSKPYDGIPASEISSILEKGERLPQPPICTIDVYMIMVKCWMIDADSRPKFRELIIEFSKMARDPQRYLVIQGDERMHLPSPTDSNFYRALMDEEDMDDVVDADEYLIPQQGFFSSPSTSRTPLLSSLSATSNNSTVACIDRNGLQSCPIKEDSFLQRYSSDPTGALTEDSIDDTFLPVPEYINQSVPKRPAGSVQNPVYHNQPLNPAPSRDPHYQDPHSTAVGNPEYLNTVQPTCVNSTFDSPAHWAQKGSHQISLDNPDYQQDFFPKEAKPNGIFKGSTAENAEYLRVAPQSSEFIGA
assay procedure: Growth inhibition of BaF3 cell line stably transfected with kinase EGFR L858R (MTS)
Format: cell-based
experimental parameters: 48 h, read-out: growth inhibitory activity IC50, L858R
Listing of entries alongside the reported GI50.

For orientation, consider the following solved cases.
{"columns": ["compound", "GI50"],
 "data": [
  ["C=Cc1cnc(Nc2cc(CC)c(N3CCC(N4CCN(C)CC4)CC3)nc2OC)nc1Nc1ccc2nccnc2c1NS(C)(=O)=O [II-33]", "≤ 50 nM"],
  ["C=Cc1cnc(Nc2cc(CC)c(N3CCC(N4CCN(C)CC4)CC3)cc2OC)nc1Nc1ccc2nccnc2c1N(C)S(C)(=O)=O [II-1]", "≤ 50 nM"]
]}

Per the record, C=Cc1cnc(Nc2cc(CC)c(N3CCC(N4CCN(C)CC4)CC3)cc2OC)nc1Nc1ccc2nccnc2c1S(C)(=O)=O [III-1] has GI50 of 500 to 2500 nM

###

Listing of entries alongside the reported GI50.
system: BaF3 cell lines stably transfected with kinase EGFR L858R (Homo sapiens, UniProt P00533, L858R, cells depend on it)
assay procedure: Growth inhibition of BaF3 cell line stably transfected with kinase EGFR L858R (MTS)
Type: cell-based
experimental parameters: 48 h, read-out: growth inhibitory activity IC50, L858R

For orientation, consider the following solved cases.
{"columns": ["molecule", "GI50"],
 "data": [
  ["C=Cc1cnc(Nc2cc(CC3CC3)c(N3CCC(N4CCN(C)CC4)CC3)cc2OC)nc1Nc1ccc2nccnc2c1S(=O)(=O)NC", "500 to 2500 nM"],
  ["C=Cc1cnc(Nc2ccc(N3CCC(N4CCN(C)CC4)CC3)c(CC)c2)nc1Nc1ccc2nccnc2c1N(C)S(C)(=O)=O", "≤ 50 nM"],
  ["C=Cc1cnc(Nc2cc(C(C)C)c(N3CCC(N4CCN(C)CC4)CC3)cc2OC)nc1Nc1ccc2nccnc2c1S(C)(=O)=O", "500 to 2500 nM"],
  ["C=Cc1cnc(Nc2cc(CC)c(N3CCN(C)CC3)cc2OC)nc1Nc1ccc2nccnc2c1P(C)(C)=O", "≤ 50 nM"]
]}

Per the record, C=Cc1cnc(Nc2cc(CC)c(N3CCC4(CC3)CC(N(C)C)C4)cc2OC)nc1Nc1ccc2nccnc2c1N(C)S(C)(=O)=O has GI50 of 50 to 500 nM

Per the record, C=Cc1cnc(Nc2cc(C)c(N3CCC(N4CCN(C)CC4)CC3)cc2OC)nc1Nc1ccc2nccnc2c1NS(C)(=O)=O has GI50 of ≤ 50 nM

Per the record, C=Cc1cnc(Nc2cc(C3CC3)c(N3CCC(N4CCN(C)CC4)CC3)cc2OC)nc1Nc1ccc2nccnc2c1S(C)(=O)=O has GI50 of 500 to 2500 nM

Per the record, C=Cc1cnc(Nc2cc(C)n(C)n2)nc1Nc1ccc2nccnc2c1N(C)S(C)(=O)=O has GI50 of 500 to 2500 nM

Per the record, C=Cc1cnc(Nc2cc(CC)c(N3CCN(C)CC3)cc2OC)nc1Nc1ccc2nccnc2c1N(C)S(C)(=O)=O has GI50 of ≤ 50 nM

Per the record, C=Cc1cnc(Nc2cc(CC)c(N3CCC(N4CCN(C)CC4)CC3)cc2OC)nc1Nc1ccc2nccnc2c1N(CC)S(C)(=O)=O has GI50 of ≤ 50 nM

Per the record, C=Cc1cnc(Nc2cc(CC)c(N3CCC(N4CCN(C)CC4)CC3)cc2OC)nc1Nc1ccc2nccnc2c1NS(C)(=O)=O has GI50 of ≤ 50 nM

Per the record, C=Cc1cnc(Nc2cc(C3CC3)c(N3CCC(N4CCN(C)CC4)CC3)cc2OC)nc1Nc1ccc2nccnc2c1N(C)S(C)(=O)=O has GI50 of 50 to 500 nM

###

system: BaF3 cell lines stably transfected with kinase EGFR L858R (Homo sapiens, UniProt P00533, L858R, cells depend on it)
assay procedure: Growth inhibition of BaF3 cell line stably transfected with kinase EGFR L858R (MTS)
Assay type: cell-based
experimental parameters: 48 h, read-out: growth inhibitory activity IC50, L858R
Listing of entries alongside the reported GI50.

For orientation, consider the following solved cases.
{"columns": ["compound", "GI50"],
 "data": [
  ["C=Cc1cnc(Nc2cc(CC)c(N3CCN(C)CC3)cc2OC)nc1Nc1ccc2nccnc2c1NS(C)(=O)=O", "≤ 0.05 µM"],
  ["C=Cc1cnc(Nc2cc(CC)c(N3CCC(N4CCN(C)CC4)CC3)cc2OC(F)(F)F)nc1Nc1ccc2nccnc2c1N(C)S(C)(=O)=O", "0.05 to 0.5 µM"]
]}

Let's switch to this compound now.
Per the record, C=Cc1cnc(Nc2cc(CC)c(N3CCC(N4CCN(C)CC4)CC3)cc2OC)nc1Nc1ccc2nccnc2c1N(C1CC1)S(C)(=O)=O has GI50 of ≤ 0.05 µM

###

system: BaF3 cell lines stably transfected with kinase EGFR Del/T790M/C797S (Homo sapiens, UniProt P00533, T790M/C797S, cells depend on it, form not given)
Sequence (P00533 with tags, fused parts or gaps DEL746-750/T790M/C797S, form open): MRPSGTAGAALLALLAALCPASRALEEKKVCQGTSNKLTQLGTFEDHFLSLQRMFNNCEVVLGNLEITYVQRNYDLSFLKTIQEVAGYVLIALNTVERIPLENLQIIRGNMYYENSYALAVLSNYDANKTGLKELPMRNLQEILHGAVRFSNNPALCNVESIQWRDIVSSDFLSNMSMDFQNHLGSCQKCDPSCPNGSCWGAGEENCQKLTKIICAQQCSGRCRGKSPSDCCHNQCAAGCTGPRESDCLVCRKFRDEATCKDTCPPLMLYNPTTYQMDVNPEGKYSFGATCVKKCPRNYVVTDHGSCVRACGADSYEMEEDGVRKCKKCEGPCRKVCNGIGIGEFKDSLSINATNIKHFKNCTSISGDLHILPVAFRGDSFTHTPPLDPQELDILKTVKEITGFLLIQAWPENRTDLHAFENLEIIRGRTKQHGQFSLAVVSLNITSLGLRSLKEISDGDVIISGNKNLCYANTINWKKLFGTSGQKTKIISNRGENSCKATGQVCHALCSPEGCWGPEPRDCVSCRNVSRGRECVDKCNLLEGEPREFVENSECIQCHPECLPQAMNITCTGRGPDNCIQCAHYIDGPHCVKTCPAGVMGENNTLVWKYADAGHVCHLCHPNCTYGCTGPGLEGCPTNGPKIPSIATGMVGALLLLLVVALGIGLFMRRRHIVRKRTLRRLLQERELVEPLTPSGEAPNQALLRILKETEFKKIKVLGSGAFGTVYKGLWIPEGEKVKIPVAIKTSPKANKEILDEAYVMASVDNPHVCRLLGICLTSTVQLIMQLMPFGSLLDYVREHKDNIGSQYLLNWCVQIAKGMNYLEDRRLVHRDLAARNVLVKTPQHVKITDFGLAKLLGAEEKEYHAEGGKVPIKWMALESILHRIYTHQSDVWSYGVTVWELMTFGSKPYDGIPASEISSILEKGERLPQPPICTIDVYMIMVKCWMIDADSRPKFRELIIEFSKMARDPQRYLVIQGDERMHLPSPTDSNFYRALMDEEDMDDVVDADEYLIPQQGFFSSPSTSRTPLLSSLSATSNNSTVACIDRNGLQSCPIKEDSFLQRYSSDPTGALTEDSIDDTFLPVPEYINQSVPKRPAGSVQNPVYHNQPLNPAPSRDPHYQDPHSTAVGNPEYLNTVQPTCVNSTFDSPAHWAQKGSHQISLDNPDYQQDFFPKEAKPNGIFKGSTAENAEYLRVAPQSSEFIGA
assay procedure: Growth inhibition of BaF3 cell line stably transfected with kinase EGFR Del/T790M/C797S (MTS)
Assay type: cell-based
experimental parameters: 48 h, read-out: growth inhibitory activity IC50, Del/T790M/C797S
result type: GI50

For orientation, consider the following solved cases.
{"columns": ["molecule", "result"],
 "data": [
  ["C=Cc1cnc(Nc2cc(CC)c(N3CCC(N(C)C)C3)cc2OC)nc1Nc1ccc2nccnc2c1N(C)S(C)(=O)=O (stereo not shown) [II-3]", "≤ 50 nM"],
  ["C=Cc1cnc(Nc2cc(C)c(N3CCC(N4CCN(C)CC4)CC3)cc2OC)nc1Nc1ccc2nccnc2c1NS(=O)(=O)C(C)C [II-43]", "50 to 500 nM"],
  ["C=Cc1cnc(Nc2cc(CC)c(N3CCC4(CC3)CC(N(C)C)C4)cc2OC)nc1Nc1ccc2nccnc2c1N(C)S(C)(=O)=O [II-55]", "50 to 500 nM"],
  ["C=Cc1cnc(Nc2cc(C)c(N3CCC(N4CCN(C)CC4)CC3)cc2OC)nc1Nc1ccc2nccnc2c1S(=O)(=O)NC [IV-2]", "50 to 500 nM"],
  ["C=C(C)c1cnc(Nc2cc(CC)c(N3CCC(N4CCN(C)CC4)CC3)cc2OC)nc1Nc1ccc2nccnc2c1P(C)(C)=O [Compound I-15]", "≤ 50 nM"]
]}

Per the record, C=Cc1cnc(Nc2cc3c(cc2OC)CCN(C)C3)nc1Nc1ccc2nccnc2c1N(C)S(C)(=O)=O [II-73] has GI50 of 500 to 2500 nM

Per the record, C=Cc1cnc(Nc2cc(Cc3ccccc3)c(N3CCC(N4CCN(C)CC4)CC3)cc2OC)nc1Nc1ccc2nccnc2c1N(C)S(C)(=O)=O [II-19] has GI50 of ≤ 50 nM

Per the record, C=Cc1cnc(Nc2cc(CC)c(N3CCC(N4CCN(C)CC4)CC3)cc2OC)nc1Nc1ccc2nccnc2c1N(C)S(C)(=O)=O [II-53] has GI50 of ≤ 50 nM

Per the record, C=Cc1cnc(Nc2cnn(CC)c2)nc1Nc1ccc2nccnc2c1N(C)S(C)(=O)=O [II-66] has GI50 of 50 to 500 nM

Per the record, C=Cc1cnc(Nc2ccc(N3CCC(N4CCN(C)CC4)CC3)c(F)c2F)nc1Nc1ccc2nccnc2c1S(=O)(=O)NC [IV-10] has GI50 of 50 to 500 nM

Per the record, C=Cc1cnc(Nc2cc(CC)c(N3CCN(C)CC3)cc2OC)nc1Nc1ccc2nccnc2c1NS(C)(=O)=O [II-41] has GI50 of ≤ 50 nM

Per the record, C=Cc1cnc(Nc2ccc3c(c2)CCN(C)CC3)nc1Nc1ccc2nccnc2c1P(C)(C)=O [Compound I-24] has GI50 of 50 to 500 nM

Per the record, CCc1cc(Nc2ncc(/C=C/c3ccccc3)c(Nc3ccc4nccnc4c3P(C)(C)=O)n2)c(OC)cc1N1CCC(N2CCN(C)CC2)CC1 [Compound I-14] has GI50 of 50 to 500 nM

Per the record, C=Cc1cnc(Nc2cc(CC)c(NCCN(C)C)cc2OC)nc1Nc1ccc2nccnc2c1N(C)S(C)(=O)=O [II-50] has GI50 of 50 to 500 nM

Per the record, C=Cc1cnc(Nc2cc(CC)c(N(C)CCN(C)C)cc2OC)nc1Nc1ccc2nccnc2c1N(C)S(C)(=O)=O [II-51] has GI50 of 50 to 500 nM
